# Test system: C. albicans fluconazole resistant strains
# MEASUREMENT PROTOCOL: microbe, parasite or virus in culture
# Format: cell-based
# CONDITION LABEL: Candida albicans, 24 h, strain DSY296, ERG11 Mutation
Listing: MIC of selected compounds
All answers are understood in µg/mL, so give the number only.

Check out these entries, answers already filled in.
[[record]]
compound = "OC(Cn1cncn1)(Cn1cncn1)c1ccc(F)cc1F [F, Fluconazole, reference compound]"
observation_type = "MIC"
units_label = "µg/mL"
value_reported = 128

[[record]]
compound = "C/C=C/CNC(=N)NCCCCCCCCN1CCCCOc2ccccc2CNC(=N)NC1=O"
observation_type = "MIC"
units_label = "µg/mL"
value_reported = 16

[[record]]
compound = "C[C@@H](c1ncncc1F)[C@](O)(Cn1cncn1)c1ccc(F)cc1F [VOR, Voriconazole, reference compound]"
observation_type = "MIC"
units_label = "µg/mL"
value_reported = 8

[[record]]
compound = "C/C=C/CNC(=N)NCCCCCCCCN1CCCCCOC(=O)CCNC(=N)NC1=O"
observation_type = "MIC"
units_label = "µg/mL"
value_reported = 16

[[record]]
compound = "C/C=C/CNC(=N)NCCCCCCCCN1CCCCCOc2ccccc2CNC(=N)NC1=O"
observation_type = "MIC"
units_label = "µg/mL"
value_reported = 4


Then there is this compound:
Reported MIC for `C/C=C/CNC(=N)NCCCCCCCCN1CCCCCCOc2ccccc2CNC(=N)NC1=O` : what is it? 16

* * *

# MEASUREMENT TARGET: chitinase enzyme extracted from Trichoderma viride
# MEASUREMENT PROTOCOL: Chitinase inhibition assay (NP-GlcNAc substrate)
# Assay type: biochemical
# CONDITION LABEL: Enz.-inhib. incubation time 3 h
IC50 overview
Give just the numeric value; µM need not be written.

[[record]]
compound = "C=C(C)CNC(=N)NCCCCCCN1CCCCCCCCNC(=N)NC1=O [Compound 37]"
measurement_target = "chitinase enzyme extracted from Trichoderma viride"
value_reported = 108

[[record]]
compound = "C#CCNC(=N)NCCCCCCN1CCCCCCCCNC(=N)NC1=O [Compound 39]"
measurement_target = "chitinase enzyme extracted from Trichoderma viride"
value_reported = 97

[[record]]
compound = "C/C=C/CNC(=N)NCCCCCCN1CCCCCCCCNC(=N)NC1=O [Compound 36]"
measurement_target = "chitinase enzyme extracted from Trichoderma viride"
value_reported = 111


Proceeding to the next compound to report its IC50.
Any idea what its IC50 is? The compound is N=C(NCCCCCCCCN1CCCCCCCCNC(=N)NC1=O)NCC1CC1 [Compound 34] 130
